- test_description: Plasma pharmacokinetics after single IV bolus or oral dose
- Type: in vivo, mice
- measurement_conditions: mouse, plasma; IV, 2 mg/kg, male Balb/c mice
assay_endpoint: AUC(0-inf) (µg·h/mL)

>>> test_value("CN1CCN(c2cc(C(=O)Nc3cc4cc(-c5cnn(C)c5)ccc4cn3)ccn2)CC1 [Compound 12]")
2.28

----------
- Test system: liver cancer (3 cell lines)
- test_description: CellTiter-Glo Viability Assay, liver cancer
- Format: cell-based
- measurement_conditions: Homo sapiens; HEPG2 cell line; inhibition of cancer cell proliferation; read-out: Liver cancer, EC50 HEPG2
assay_endpoint: EC50 (nM)

>>> test_value("Cn1ncc(-c2ccc3cnc(NC(=O)C4CC5(C4)CN(CCF)C5)cc3c2)c1CN1CCCCC1 [Compound 77]")
766
>>> test_value("CN1CCCCN(C)c2nccc3[nH]c(nc23)-c2n[nH]c3ccc(cc23)-c2cncc(c2)C1 [Compound 58]")
2110
>>> test_value("CN1CCC(Oc2ccc(NC(=O)c3n[nH]c4cc(F)c(-c5cnn(C)c5)cc34)cc2)CC1 [Compound 61]")
1460
>>> test_value("CN1CCC2(CC1)CN(c1cc(C(=O)Nc3cc4cc(-c5cnn(C)c5)ccc4cn3)ccn1)C2 [Compound 71]")
165
>>> test_value("Cc1ncc(-c2ccc3cnc(NC(=O)c4cnn(C5CCN(C)CC5)c4)cc3c2)o1 [Compound 83]")
107
>>> test_value("Cn1ncc(-c2ccc3cnc(NC(=O)c4cccc(CN5CCCC5)c4)cc3c2)c1CN1CCCCC1 [Compound 78]")
845
>>> test_value("CC(C)CC(=O)Nc1cncc(-c2ccc3[nH]nc(-c4cc5c(N6CCCCC6)cncc5[nH]4)c3c2)c1 [Compound 50]")
1460
>>> test_value("CN(C)C1CCN(c2cc(C(=O)Nc3ncc4ccc(-c5cn(C)nn5)cc4n3)ccn2)CC1 [Compound 80]")
3680
>>> test_value("CN1CC=C(c2cc(C(=O)Nc3cc4cc(-c5cncc(NC(C)(C)C)n5)cnc4cn3)ccn2)CC1 [Compound 86]")
3860
>>> test_value("CN1CCN(c2cc(C(=O)Nc3cc4cc(-c5cnn(C)c5N)ccc4cn3)ccn2)CC1 [Compound 75]")
130
>>> test_value("CN1CCN(c2cc(Nc3ncc4c(-c5ccc6ncccc6c5)c[nH]c4n3)ccn2)CC1 [Compound 67]")
3290
>>> test_value("Cn1cc(-c2ccc3cnc(NC(=O)c4ccc5c(c4)CNCC5)cc3c2)cn1 [Compound 74]")
716
>>> test_value("Cc1n[nH]c2ccc(-c3cncc(N[C@H]4CC[C@H](O)CC4)n3)cc12 [Compound 65]")
667
>>> test_value("COc1ccc(NC(=O)c2n[nH]c3ccc(-c4cncc(CN5CCCCC5)c4)cc23)cn1 [Compound 59]")
428
>>> test_value("CN1CCC(Oc2ccc(NC(=O)c3n[nH]cc3/C=C/c3cccnc3)cn2)CC1 [Compound 93]")
3620
>>> test_value("CN1CCN(c2ccc(NC(=O)c3n[nH]c4ccc(-c5cncc(NC(=O)C6CC6)c5)cc34)cn2)CC1 [Compound 60]")
452
>>> test_value("Cc1n[nH]c2cc(F)c(-c3cncc(CN4CCNCC4)c3)cc12 [Compound 63]")
3440
>>> test_value("Cc1cc2ncc(-c3ccc4cnc(NC(=O)c5ccnc(N6CCN(C)CC6)c5)cc4c3)cc2[nH]1 [Compound 87]")
6940
>>> test_value("CN1CCN(c2cc(C(=O)Nc3cc4cc(-c5nnc(N(C)C)s5)ccc4cn3)ccn2)CC1 [Compound 84]")
734
>>> test_value("c1cc2cc(c1)-c1cncc3[nH]c(nc13)-c1n[nH]c3ccc(cc13)-c1cncc(c1)CNC2 [Compound 54]")
377
>>> test_value("CS(=O)(=O)NCc1cc(F)cc(-c2nccc3[nH]c(-c4n[nH]c5ccc(-c6cncc(NC(=O)C7CCC7)c6)cc45)cc23)c1 [Compound 53]")
2090
>>> test_value("CN1CCC2(CC1)CN(c1cc(C(=O)Nc3cc4cc(-c5cnn(C)c5CO)ccc4cn3)ccn1)C2 [Compound 76]")
654
>>> test_value("CN1CCN(c2cc(C(=O)Nc3cc4cc(-c5cnn(C)c5)c(F)cc4cn3)ccn2)CC1 [Compound 69]")
372
>>> test_value("O=C(Nc1c[nH]nc1-c1nc2c(-c3cccc(F)c3)cncc2[nH]1)c1cccnc1 [Compound 91]")
375
>>> test_value("CN1CCC(Sc2ccc3cnc(NC(=O)c4ccnc(SC5CCN(C)CC5)c4)cc3c2)CC1 [Compound 88]")
6400

----------
- Test system: haematopoietic & lymphoid tumors (13 cell lines)
- test_description: CellTiter-Glo Viability Assay, haematopoietic & lymphoid tumors
- Type: cell-based
- measurement_conditions: Homo sapiens; TF-1 cell line; inhibition of cancer cell proliferation; read-out: Haematopoietic & Lymphoid tumors, EC50 (μM) TF-1
Reported EC50 values for the following compounds.
assay_endpoint: EC50 (µM)

>>> test_value("[2H]c1c([2H])c([2H])c(/C=C/C(=O)Nc2cc3cc(-c4cncn4C)ccc3cn2)c([2H])c1[2H]")
0.391
>>> test_value("Cc1n[nH]c2cc(F)c(-c3cncc(CN4CCNCC4)c3)cc12")
6
>>> test_value("Cc1ncc(C(=O)Nc2cc3nc(-c4cnc(C)n4C)ccc3cn2)s1")
0.316
>>> test_value("Cc1cc2ncc(-c3ccc4cnc(NC(=O)c5ccnc(N6CCN(C)CC6)c5)cc4c3)cc2[nH]1")
3.93
>>> test_value("c1cc2cc(c1)-c1cncc3[nH]c(nc13)-c1n[nH]c3ccc(cc13)-c1cncc(c1)CNC2")
0.108
>>> test_value("CN1CCN(c2ccc(NC(=O)c3n[nH]c4ccc(-c5cncc(NC(=O)C6CC6)c5)cc34)cn2)CC1")
3.05
>>> test_value("CN1CCC(Oc2ccc(C(=O)Nc3cc4cc(-c5cnn(C)c5)ccc4cn3)cc2)CC1")
0.649

----------
Reported EC50 values for the following compounds.
- measured_target: CLK2 (Homo sapiens, UniProt P49760)
- Construct: purchased Thermo Fisher (Life Technologies), Z'-LYTE Kinase Assay Kits
- Sequence (P49760 whole entry): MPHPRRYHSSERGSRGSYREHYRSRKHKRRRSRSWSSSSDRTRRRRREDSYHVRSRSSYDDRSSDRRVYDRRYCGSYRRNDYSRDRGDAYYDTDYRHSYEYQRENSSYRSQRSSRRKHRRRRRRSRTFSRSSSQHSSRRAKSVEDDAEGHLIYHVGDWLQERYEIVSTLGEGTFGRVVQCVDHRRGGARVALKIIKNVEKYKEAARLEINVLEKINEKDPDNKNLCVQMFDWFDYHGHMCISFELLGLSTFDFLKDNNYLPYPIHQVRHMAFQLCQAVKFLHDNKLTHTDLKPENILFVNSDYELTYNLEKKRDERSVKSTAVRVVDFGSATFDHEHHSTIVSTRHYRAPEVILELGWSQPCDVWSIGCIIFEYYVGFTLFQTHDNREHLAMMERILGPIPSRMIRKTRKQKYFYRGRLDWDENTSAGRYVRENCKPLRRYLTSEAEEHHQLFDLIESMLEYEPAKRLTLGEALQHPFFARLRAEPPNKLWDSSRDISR
- test_description: CLK2 kinase activity assay (Z-lyte, Ser/Thr 6 peptide)
- Format: biochemical
- measurement_conditions: recombinant CLK2 kinase, ATP 60 μM; read-out: EC50
assay_endpoint: EC50 (nM)

>>> test_value("CN1CCC(C(=O)Nc2c[nH]nc2-c2nc3c(-c4ccc(F)s4)cccc3[nH]2)CC1 [Compound 90]")
11.2
>>> test_value("CC(C)CC(=O)Nc1cncc(-c2ccc3[nH]nc(-c4nc5c(-c6cc(F)cc(OCCN(C)C)c6)cncc5[nH]4)c3c2)c1 [Compound 39]")
4
>>> test_value("Cc1n[nH]c2ccc(-c3cncc(OC4CCNCC4(F)F)n3)cc12 (stereo not shown) [Compound 28]")
3
>>> test_value("CN1CCC(Oc2cc(NC(=O)c3n[nH]c4cc(F)c(-c5cnn(C)c5)cc34)ccn2)CC1 [Compound 35]")
1
>>> test_value("CN(C)Cc1cncc(-c2ccc3[nH]nc(-c4nc5c(-c6cc(F)cc(CNS(C)(=O)=O)c6)ccnc5[nH]4)c3c2F)c1 [Compound 41]")
2
>>> test_value("CC(C)CC(=O)Nc1cncc(-c2ccc3[nH]nc(-c4cc5c(N6CCCCC6)cncc5[nH]4)c3c2)c1 [Compound 50]")
3.8
>>> test_value("CN1CCN(c2cc(Nc3ncc4c(-c5ccc6ncccc6c5)c[nH]c4n3)ccn2)CC1 [Compound 67]")
2.4

----------
Reported fold induction at 3 µM values for the following compounds.
- Test system: SW480 colorectal cancer cells
- test_description: Gene expression qRT-PCR in SW480 cells
- Format: cell-based
- measurement_conditions: Homo sapiens; SW480, 3 μM, 24 hours, relative to DMSO; read-out: gene expression fold change CLK3
assay_endpoint: fold induction at 3 µM

>>> test_value("CN(C)CCN(C)c1ccc(NC(=O)c2n[nH]c3ccc(-c4cncc(CN5CCCCC5)c4)cc23)cn1")
0.03
>>> test_value("CN1CCC(C(=O)Nc2c[nH]nc2-c2nc3c(-c4cccc(F)c4)cccc3[nH]2)CC1")
0.01
>>> test_value("O=C(Nc1cc2cc(-c3cncc(NC4CCNC[C@@H]4F)n3)ccc2cn1)C1CC1 (stereo partly shown)")
0.04
>>> test_value("CN1CCC(n2cc(C(=O)Nc3cc4cc(-c5cncc6[nH]ccc56)ccc4cn3)cn2)CC1")
0.02

----------
Reported EC50 values for the following molecules.
- Tested on: prostate cancer (5 cell lines)
- test_description: CellTiter-Glo Viability Assay, prostate cancer
- Format: cell-based
- measurement_conditions: Homo sapiens, PC-3; PC3 cell line; inhibition of cancer cell proliferation; read-out: Prostate cancer EC50 PC3
assay_endpoint: EC50

>>> test_value("Cc1n[nH]c2ccc(-c3cncc(N[C@H]4CC[C@H](O)CC4)n3)cc12")
"557 nM"
>>> test_value("CC(C)Nc1cncc(-c2ccc3cnc(NC(=O)c4cn(C5CCN(CCF)CC5)nn4)cc3c2)n1")
"250 nM"
>>> test_value("O=C1CCc2cccc(c2)-c2cncc(c2)NC(=O)c2n[nH]c3ccc(cc23)-c2cncc(c2)CN1")
"> 10000 nM"
>>> test_value("CN(C)Cc1cncc(-c2ccc3[nH]nc(-c4cc5c(-c6ccoc6)ccnc5[nH]4)c3c2)c1")
"7870 nM"
>>> test_value("CN1CCN(c2cc(C(=O)Nc3cc4cc(-c5cnn(C)c5)c(F)cc4cn3)ccn2)CC1")
"866 nM"
>>> test_value("O=C(Nc1ccc(OCCN2CCCC2)cc1)c1n[nH]cc1/C=C/c1cccnc1")
"> 10000 nM"
>>> test_value("CN1CCCCN(C)c2nccc3[nH]c(nc23)-c2n[nH]c3ccc(cc23)-c2cncc(c2)C1")
"313 nM"
>>> test_value("COc1ccc(NC(=O)c2n[nH]c3ccc(-c4cncc(CN5CCCCC5)c4)cc23)cn1")
"394 nM"
